- Target: PDGFR (Homo sapiens)
- Sequence (P09619 33-1106): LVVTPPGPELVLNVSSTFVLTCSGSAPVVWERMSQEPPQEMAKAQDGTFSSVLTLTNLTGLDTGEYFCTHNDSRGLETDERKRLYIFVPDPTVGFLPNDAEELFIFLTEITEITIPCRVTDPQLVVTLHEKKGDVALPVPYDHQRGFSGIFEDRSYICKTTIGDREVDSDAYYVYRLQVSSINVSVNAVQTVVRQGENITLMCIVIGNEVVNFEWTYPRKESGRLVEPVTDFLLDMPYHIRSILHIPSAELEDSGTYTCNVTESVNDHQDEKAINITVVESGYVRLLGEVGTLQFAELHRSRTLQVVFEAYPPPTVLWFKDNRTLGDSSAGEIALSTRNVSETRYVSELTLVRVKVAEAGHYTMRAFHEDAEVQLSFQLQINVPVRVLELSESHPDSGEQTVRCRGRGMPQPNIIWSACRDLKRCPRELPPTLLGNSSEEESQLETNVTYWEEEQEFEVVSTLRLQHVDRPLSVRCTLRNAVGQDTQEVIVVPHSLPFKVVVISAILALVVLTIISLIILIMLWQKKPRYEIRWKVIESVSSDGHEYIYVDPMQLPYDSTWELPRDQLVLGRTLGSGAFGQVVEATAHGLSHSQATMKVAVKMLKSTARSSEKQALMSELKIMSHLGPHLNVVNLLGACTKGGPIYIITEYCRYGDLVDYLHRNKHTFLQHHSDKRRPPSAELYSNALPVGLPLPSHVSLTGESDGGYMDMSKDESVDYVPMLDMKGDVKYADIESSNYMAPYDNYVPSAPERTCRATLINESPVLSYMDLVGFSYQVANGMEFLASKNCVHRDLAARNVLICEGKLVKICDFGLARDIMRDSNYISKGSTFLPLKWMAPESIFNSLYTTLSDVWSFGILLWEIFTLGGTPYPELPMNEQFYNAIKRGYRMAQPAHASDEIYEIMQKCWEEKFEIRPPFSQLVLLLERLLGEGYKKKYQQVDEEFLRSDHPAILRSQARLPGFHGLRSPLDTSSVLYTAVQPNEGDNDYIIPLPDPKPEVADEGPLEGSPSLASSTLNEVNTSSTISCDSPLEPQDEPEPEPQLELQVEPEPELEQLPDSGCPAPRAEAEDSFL
- Protocol description: Ca2+ release assay (FLIPR) in HEK cell line expressing human PDGFR
- Format: cell-based
- Design: expressed in transfected cells; host or cells: HEK
- Test conditions: HEK cells expressing human PDGFR, PDGF 40 ng/mL
Reported property: IC50 (nM)
Report only the number, with the unit nM understood.

Incoming: Tell me the measured IC50 of "CCN1CCN(C(=O)CCc2c(C)[nH]c(C=C3C(=O)Nc4ccccc43)c2C)CC1.O=C(O)C(F)(F)F" , please.
Outgoing: 90

----------
- Target: Flt-3 ITD (Homo sapiens, UniProt P36888, INS600HVDFREYEYD)
- Construct: MV4-11 cells express Flt-3 ITD; endogenous in cells
- Sequence (P36888 with tags, fused parts or gaps INS600HVDFREYEYD): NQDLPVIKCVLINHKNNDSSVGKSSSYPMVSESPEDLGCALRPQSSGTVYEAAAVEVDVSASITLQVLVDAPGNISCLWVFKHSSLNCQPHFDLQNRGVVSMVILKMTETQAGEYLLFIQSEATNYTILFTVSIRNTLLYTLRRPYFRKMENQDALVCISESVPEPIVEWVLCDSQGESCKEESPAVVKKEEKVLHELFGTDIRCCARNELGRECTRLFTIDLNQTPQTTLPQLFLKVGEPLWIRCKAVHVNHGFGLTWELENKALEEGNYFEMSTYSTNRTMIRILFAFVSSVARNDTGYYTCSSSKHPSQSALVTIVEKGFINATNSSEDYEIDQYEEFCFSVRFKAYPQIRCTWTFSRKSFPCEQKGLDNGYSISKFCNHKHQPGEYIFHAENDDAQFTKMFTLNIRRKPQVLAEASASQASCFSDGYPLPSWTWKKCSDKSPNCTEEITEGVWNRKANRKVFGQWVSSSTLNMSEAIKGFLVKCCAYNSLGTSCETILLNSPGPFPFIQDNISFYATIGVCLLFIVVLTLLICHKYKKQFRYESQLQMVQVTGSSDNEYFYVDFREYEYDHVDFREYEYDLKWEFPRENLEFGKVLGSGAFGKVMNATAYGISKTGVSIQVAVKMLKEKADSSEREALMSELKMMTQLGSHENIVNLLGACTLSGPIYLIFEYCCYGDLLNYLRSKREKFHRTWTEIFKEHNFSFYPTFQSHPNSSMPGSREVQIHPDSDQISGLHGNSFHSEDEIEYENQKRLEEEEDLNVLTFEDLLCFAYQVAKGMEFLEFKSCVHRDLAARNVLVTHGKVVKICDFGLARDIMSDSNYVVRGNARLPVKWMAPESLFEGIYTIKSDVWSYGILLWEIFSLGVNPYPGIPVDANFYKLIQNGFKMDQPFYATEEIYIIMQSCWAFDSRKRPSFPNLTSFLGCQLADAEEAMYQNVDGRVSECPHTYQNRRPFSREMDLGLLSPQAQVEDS
- Protocol description: Proliferation and viability assay (MTT), cytotoxicity assay
- Test conditions: MV4-11 AML cells expressing Flt-3 ITD, 48 hours, highest concentration tested 10 μm
Reported property: EC50 (nM)
Report only the number, with the unit nM understood.

Incoming: Provide value of EC50 for this record tested with Flt-3 ITD (Homo sapiens, UniProt P36888, INS600HVDFREYEYD): CCN1CCN(C(=O)CCc2c(C)[nH]c(C=C3C(=O)Nc4ccccc43)c2C)CC1.O=C(O)C(F)(F)F [Example 22]
Outgoing: 220

Incoming: Provide value of EC50 for this record tested with Flt-3 ITD (Homo sapiens, UniProt P36888, INS600HVDFREYEYD): Cc1[nH]c(C=C2C(=O)Nc3ccccc32)c(C)c1CCC(=O)N1CCNCC1.O=C(O)C(F)(F)F [Example 1, trifluoroacetate]
Outgoing: 240
